- Test system: ACHN
- protocol description: GI50 of drug in presence of dasatinib; higher = less potent
- run parameters: treatment: drug + dasatinib (fixed dose, not stated); 5 days
I'd appreciate it if you could supply GI50 of drug values for the items below.
A number alone suffices; assume nM.

Query: Would you kindly share the measured GI50 of drug for CC(C)(C)c1cc(NC(=O)Nc2ccc(-c3cn4c(n3)sc3cc(OCCN5CCOCC5)ccc34)cc2)no1 [Quizartinib (AC220)] + Cc1nc(Nc2ncc(C(=O)Nc3c(C)cccc3Cl)s2)cc(N2CCN(CCO)CC2)n1 [dasatinib] ?
Result: 2020

Query: GI50 of drug; subject: O=c1cc(-c2cccc3c2Sc2ccccc2S3)oc(N2CCOCC2)c1 + Cc1nc(Nc2ncc(C(=O)Nc3c(C)cccc3Cl)s2)cc(N2CCN(CCO)CC2)n1 [dasatinib]
Result: 20

Query: // returns reported GI50 of drug for input CNC(=O)c1nn(C)c2c1C(C)(C)Cc1cnc(Nc3ccc(N4CCN(C)CC4)cc3)nc1-2 + Cc1nc(Nc2ncc(C(=O)Nc3c(C)cccc3Cl)s2)cc(N2CCN(CCO)CC2)n1 [dasatinib]
Result: 22

Query: I am curious: what GI50 of drug value has been reported for Clc1ccc(C2(c3ccc(-c4cn[nH]c4)cc3)CCNCC2)cc1 [AT7867] + Cc1nc(Nc2ncc(C(=O)Nc3c(C)cccc3Cl)s2)cc(N2CCN(CCO)CC2)n1 [dasatinib] ?
Result: 530

Query: GI50 of drug for CC(C)(C)c1cnc(CSc2cnc(NC(=O)C3CCNCC3)s2)o1 + Cc1nc(Nc2ncc(C(=O)Nc3c(C)cccc3Cl)s2)cc(N2CCN(CCO)CC2)n1 [dasatinib] ?
Result: 157

Query: What value of measured GI50 of drug is listed for CNC(=O)c1cccc(-c2ccc3c(N4CCOC[C@@H]4C)nc(N4CCOC[C@@H]4C)nc3n2)c1 [AZD2014] + Cc1nc(Nc2ncc(C(=O)Nc3c(C)cccc3Cl)s2)cc(N2CCN(CCO)CC2)n1 [dasatinib] ?
Result: 8.2

Query: Quick one: GI50 of drug of C=CC(=O)Nc1ccc2ncnc(Nc3ccc(OCc4cccc(F)c4)c(Cl)c3)c2c1.Cc1ccc(S(=O)(=O)O)cc1 [AST-1306] + Cc1nc(Nc2ncc(C(=O)Nc3c(C)cccc3Cl)s2)cc(N2CCN(CCO)CC2)n1 [dasatinib] ?
Result: 84.7

====

Would you mind telling me the reported minimum viability across doses of each entry?
- Tested on: UO-31
- protocol description: minimum viability across doses, drug + dasatinib, relative to DMSO (fraction); higher = less growth inhibition
- run parameters: treatment: drug + dasatinib (fixed dose, not stated); 5 days
The answer should be a number; do not append a unit.

Query: Give UO-31 minimum viability across doses for CO[C@H]1C[C@@H]2CC[C@@H](C)[C@@](O)(O2)C(=O)C(=O)N2CCCC[C@H]2C(=O)O[C@H]([C@H](C)C[C@@H]2CC[C@@H](O)[C@H](OC)C2)CC(=O)[C@H](C)/C=C(\C)[C@@H](O)[C@@H](OC)C(=O)[C@H](C)C[C@H](C)/C=C/C=C/C=C/1C [Rapamycin (Sirolimus)] + Cc1nc(Nc2ncc(C(=O)Nc3c(C)cccc3Cl)s2)cc(N2CCN(CCO)CC2)n1 [dasatinib]
Result: 0.277

Query: Quick check: minimum viability across doses on UO-31, item CC1(C)CNc2cc(NC(=O)c3cccnc3NCc3ccncc3)ccc21.O=P(O)(O)O.O=P(O)(O)O [Motesanib Diphosphate] + Cc1nc(Nc2ncc(C(=O)Nc3c(C)cccc3Cl)s2)cc(N2CCN(CCO)CC2)n1 [dasatinib] ?
Result: 0.944

Query: Look up minimum viability across doses with UO-31 for this molecule: CC[C@H](Nc1ncnc2[nH]cnc12)c1nc2cccc(F)c2c(=O)n1-c1ccccc1 [CAL-101 (GS-1101)] + Cc1nc(Nc2ncc(C(=O)Nc3c(C)cccc3Cl)s2)cc(N2CCN(CCO)CC2)n1 [dasatinib]
Result: 0.362

====

- Tested on: ACHN
- protocol description: GI50 of drug in presence of dasatinib; higher = less potent
- run parameters: treatment: drug + dasatinib (fixed dose, not stated); 5 days
So I've got a bunch of molecules here, and I need their GI50 of drug values.
Hi! Could you send only the number? It should be in µM, unit omitted.

Query: Param readout= GI50 of drug; system= ACHN; entry= O=c1cc(N2CCOCC2)oc2c(-c3cccc4c3sc3ccccc34)cccc12 + Cc1nc(Nc2ncc(C(=O)Nc3c(C)cccc3Cl)s2)cc(N2CCN(CCO)CC2)n1 [dasatinib] ; returns value.
Result: 1.8

Query: Request body: readout GI50 of drug, system ACHN, query C=CCc1cccc(/C=N/NC(=O)CN2CCN(Cc3ccccc3)CC2)c1O [PAC-1] + Cc1nc(Nc2ncc(C(=O)Nc3c(C)cccc3Cl)s2)cc(N2CCN(CCO)CC2)n1 [dasatinib] . Return the value.
Result: 0.174

Query: Could you share what GI50 of drug was measured for CN[C@@H]1C[C@H]2O[C@@](C)([C@@H]1OC)n1c3ccccc3c3c4c(c5c6ccccc6n2c5c31)C(=O)NC4 [Staurosporine] + Cc1nc(Nc2ncc(C(=O)Nc3c(C)cccc3Cl)s2)cc(N2CCN(CCO)CC2)n1 [dasatinib] , tested on ACHN?
Result: 0.0036

====

- System: TK-10
- protocol description: minimum viability across doses, drug alone, relative to DMSO (fraction); higher = less growth inhibition
- run parameters: treatment: drug alone; 5 days
reported endpoint: minimum viability across doses
// no unit, no text: just the number

Query: Need minimum viability across doses, item CC1(C)CCC(c2ccc(Cl)cc2)=C(CN2CCN(c3ccc(C(=O)NS(=O)(=O)c4ccc(N[C@H](CCN5CCOCC5)CSc5ccccc5)c(S(=O)(=O)C(F)(F)F)c4)cc3)CC2)C1 [ABT-263 (Navitoclax)]
Result: 0.163

Query: If you can, please state the reported minimum viability across doses value of Cc1cc(Nc2cc(N3CCN(C)CC3)nc(/C=C/c3ccccc3)n2)n[nH]1.O=C(O)[C@H](O)[C@@H](O)C(=O)O [ENMD-2076] .
Result: 0.146

Query: State the recorded minimum viability across doses for this entry: CS(=O)(=O)O.O=C(Nc1cccc(Cl)c1)Nc1ncc(CCNc2ncnc3ccsc23)s1 [SNS-314]
Result: 0.536

Query: Form field: reported minimum viability across doses of COC(=O)c1ccc2c(c1)NC(=O)/C2=C(\Nc1ccc(N(C)C(=O)CN2CCN(C)CC2)cc1)c1ccccc1 [BIBF1120 (Vargatef)]
Result: 0.61

Query: Entry COc1ccc(S(=O)(=O)N(C(C)=O)c2ccccc2/C=C/c2cc[n+]([O-])cc2)cc1 [HMN-214] : reported minimum viability across doses = ?
Result: 0.285

Query: Using the record for CC(C)(C)c1cc(C=C(C#N)C#N)cc(Br)c1O [AG-1024] , report its minimum viability across doses.
Result: 0.791

Query: minimum viability across doses; subject: FC(F)(F)c1ccc(/C=C/c2nc(COc3ccc(CCCCn4ccnn4)cc3)co2)cc1 [Mubritinib (TAK 165)]
Result: 0.21

Query: What value of minimum viability across doses has been recorded for this entry: COC(=O)Nc1ccc(-c2nc(N3CCOCC3)c3cnn(C4CCN(Cc5cccnc5)CC4)c3n2)cc1 [WYE-687]
Result: 0.0981

Query: minimum viability across doses lookup needed for Cc1nc(N)sc1-c1ccnc(Nc2ccc(N3CCOCC3)cc2)n1 [CYC116] , thanks.
Result: 0.152

Query: Using the record for Cl.Cl.Clc1ccc(Nc2nnc(Cc3ccncc3)c3ccccc23)cc1 [Vatalanib dihydrochloride (PTK787)] , report its minimum viability across doses.
Result: 0.887

Query: What value of measured minimum viability across doses is listed for O=C1Nc2ccccc2/C1=C1/Nc2ccccc2C1=O [Indirubin] ?
Result: 0.635

====

Please respond with reported GI50, drug alone for every item in the list.
- System: SN12C
- protocol description: GI50, drug alone; higher = less potent
- run parameters: treatment: drug alone; 5 days

Query: GET /values?readout=GI50, drug alone&item= Cc1ccc(NC(=O)c2ccc(CN3CCN(C)CC3)cc2)cc1Nc1nccc(-c2cccnc2)n1 [Imatinib (Gleevec)]
Result: > 10 µM

Query: Could you share which GI50, drug alone value was measured for COc1ccc2c(Oc3ccc(NC(=O)c4c(C)n(CC(C)(C)O)n(-c5ccccc5)c4=O)nc3)ccnc2c1 [AMG458] ?
Result: > 10 µM

Query: Give the measured GI50, drug alone of COc1ccc2cc(-c3[nH]c(-c4ccc(S(C)=O)cc4)nc3-c3ccncc3)ccc2c1 (centres undefined) [Tie2 kinase inhibitor] .
Result: > 10 µM

Query: # input compound: CC(C)(C)c1cc(NC(=O)Nc2ccc(-c3cn4c(n3)sc3cc(OCCN5CCOCC5)ccc34)cc2)no1 [Quizartinib (AC220)] ; wanted: its GI50, drug alone
Result: > 10 µM

====

- Tested on: UO-31
- protocol description: GI50, drug alone; higher = less potent
- run parameters: treatment: drug alone; 5 days
Can you tell me GI50, drug alone for the items I'm about to list?

Query: Param readout = GI50, drug alone; param system = UO-31; param query = `NC(=O)Nc1sc(-c2ccc(F)cc2)cc1C(N)=O` ; response: value
Result: > 10 µM

Query: Test system UO-31; read-out GI50, drug alone; what value for `Cc1[nH]c(/C=C2\C(=O)Nc3ccc(S(=O)(=O)Cc4c(Cl)cccc4Cl)cc32)c(C)c1C(=O)N1CCC[C@@H]1CN1CCCC1` ?
Result: > 10 µM

Query: For the record `Nc1nc(N)c2nc(-c3cccc(O)c3)c(-c3cccc(O)c3)nc2n1` , what value of GI50, drug alone is listed for UO-31?
Result: > 10 µM

Query: Value wanted: GI50, drug alone (UO-31) of entry `CCc1cccc(CC)c1NC(=O)N1Cc2[nH]nc(NC(=O)c3ccc(N4CCN(C)CC4)cc3)c2C1`
Result: > 10 µM

Query: So what GI50, drug alone did `COc1ccc2c(c1OC)N=C(NC(=O)c1cccnc1)N1CCN=C21` get with UO-31?
Result: > 10 µM

Query: Please provide the recorded GI50, drug alone for `C#Cc1cccc(Nc2ncnc3cc(OCCOC)c(OCCO)cc23)c1` , tested on UO-31.
Result: > 10 µM

Query: Find the measured GI50, drug alone: item O=c1c(O)c(-c2ccc(O)c(O)c2)oc2cc(O)cc(O)c12 [Quercetin (Sophoretin)] , target or system UO-31.
Result: > 10 µM

Query: Request - read-out GI50, drug alone | tested on UO-31 | compound `Cc1[nH]c(/C=C2/C(=O)Nc3ccc(S(=O)(=O)N(C)c4cccc(Cl)c4)cc32)c(C)c1C(=O)N1CCN(C)CC1`
Result: > 10 µM

Query: Lab request: please report GI50, drug alone under test system UO-31 for `CCCS(=O)(=O)Nc1ccc(F)c(C(=O)c2c[nH]c3ncc(-c4ccc(Cl)cc4)cc23)c1F`
Result: > 10 µM

Query: Kindly state the measured GI50, drug alone obtained for CO[C@H]1C[C@@H]2CC[C@@H](C)[C@@](O)(O2)C(=O)C(=O)N2CCCC[C@H]2C(=O)O[C@H]([C@H](C)C[C@@H]2CC[C@@H](O)[C@H](OC)C2)CC(=O)[C@H](C)/C=C(\C)[C@@H](O)[C@@H](OC)C(=O)[C@H](C)C[C@H](C)/C=C/C=C/C=C/1C [Rapamycin (Sirolimus)] with UO-31.
Result: < 0.003 µM

Query: Form: Entry = `CNC(=O)CN1CCC(Oc2cc3c(Nc4cccc(Cl)c4F)ncnc3cc2OC)CC1` | System = UO-31 | GI50, drug alone = ____
Result: > 10 µM

Query: Can you look up GI50, drug alone on UO-31 for `CCOc1ccn(-c2ccc(F)cc2)c(=O)c1C(=O)Nc1ccc(Oc2ccnc(N)c2Cl)c(F)c1` ?
Result: > 10 µM

Query: Which measured GI50, drug alone belongs to `Cc1ccc(C(=O)Nc2cccc(C(F)(F)F)c2)cc1Nc1nc(-c2cccnc2)nc2c1cnn2C` , tested on UO-31?
Result: 8.28 µM

Query: Notebook: pull reported GI50, drug alone for UO-31, entry `Cc1cn(-c2cc(NC(=O)c3ccc(C)c(Nc4nccc(-c5cccnc5)n4)c3)cc(C(F)(F)F)c2)cn1`
Result: > 10 µM

Query: Please tell me: GI50, drug alone of `O=c1cc(N2CCOCC2)oc2c(-c3ccccc3)cccc12` , system UO-31?
Result: > 10 µM

Query: Query GI50, drug alone on UO-31 for `COc1cc(Nc2ncc(F)c(Nc3ccc4c(n3)N(COP(=O)([O-])[O-])C(=O)C(C)(C)O4)n2)cc(OC)c1OC.[Na+].[Na+]`
Result: 9.63 µM

Query: API: value(readout= GI50, drug alone, system= UO-31, query= CN1C(=O)C(Cc2c[nH]c3ccccc23)NC1=S (stereo unspecified) )
Result: > 10 µM

Query: Give GI50, drug alone (UO-31) of the following compound: O=C(O)c1ccc2c(c1)nc(Nc1cccc(Cl)c1)c1ccncc12 [cx-4945 (Silmitasertib)]
Result: > 10 µM

Query: Record lookup: for UO-31, what GI50, drug alone belongs to S=C(NCc1ccc2c(c1)OCO2)N1CCN(c2ncnc3c2oc2ccccc23)CC1 [Amuvatinib (MP-470)_R2] ?
Result: 2.57 µM

Query: Test system UO-31; read-out GI50, drug alone; what value for `CN(C)C1CCN(C(=O)c2ccc(NC(=O)Nc3ccc(-c4nc(N5CCOCC5)nc(N5CCOCC5)n4)cc3)cc2)CC1` ?
Result: 0.451 µM

Query: Lookup: GI50, drug alone / UO-31 / `COCCOc1ccc2c(c1)ncn2-c1ccc2cccc(N3CCC(N)CC3)c2n1`
Result: 2.91 µM
